- Tested on: SK-OV-3
- assay_name: Concentration required to inhibit growth of human ovarian (SK-OV3) cell line
- Format: functional
The entries below come with measured log10(GI50) values attached.
Short version: log10 scale, GI50, µM.

[[record]]
structure_notation = "O=S(=O)(/C=C/c1ccc(Cl)c(Cl)c1)Cc1ccc(Nc2ncnc3ccccc23)cc1"
data_value = 1.34

[[record]]
structure_notation = "COc1cc2ncnc(Nc3ccc(CS(=O)(=O)/C=C/c4ccc(Br)cc4)cc3)c2cc1OC"
data_value = 1.70

[[record]]
structure_notation = "O=S(=O)(/C=C/c1ccc(F)cc1)Cc1ccc(Nc2ncnc3ccccc23)cc1"
data_value = 0.30

[[record]]
structure_notation = "O=S(=O)(/C=C/c1ccc(C(F)(F)F)cc1F)Cc1ccc(Nc2ncnc3ccccc23)cc1"
data_value = 1.59

[[record]]
structure_notation = "COc1cc2ncnc(Nc3ccc(CS(=O)(=O)/C=C/c4ccc(Cl)cc4Cl)cc3)c2cc1OCCCN1CCOCC1"
data_value = 0.38


Given item O=S(=O)(/C=C/c1ccc(F)cc1F)Cc1ccc(Nc2ncnc3ccc(Br)cc23)cc1 , the value recorded as its log10(GI50) is 0.30

Given item CC(C)(C)c1cc(/C=C/S(=O)(=O)Cc2ccc(Nc3ncnc4ccccc34)cc2)cc(C(C)(C)C)c1O , the value recorded as its log10(GI50) is 0.48

Given item O=S(=O)(/C=C/c1ccccc1)Cc1ccc(Nc2ncnc3ccccc23)cc1 , the value recorded as its log10(GI50) is 0.70

Given item O=S(=O)(/C=C/c1ccc(Br)cc1)Cc1ccc(Nc2ncnc3ccccc23)cc1 , the value recorded as its log10(GI50) is 0.00

Data provenance: ChEMBL document CHEMBL1146712
